Molecular target: PD-1/PD-L1 (Homo sapiens, UniProt Q9NZQ7)
Construct: TVMV protease site linker (C)
Sequence (Q9NZQ7 18-239): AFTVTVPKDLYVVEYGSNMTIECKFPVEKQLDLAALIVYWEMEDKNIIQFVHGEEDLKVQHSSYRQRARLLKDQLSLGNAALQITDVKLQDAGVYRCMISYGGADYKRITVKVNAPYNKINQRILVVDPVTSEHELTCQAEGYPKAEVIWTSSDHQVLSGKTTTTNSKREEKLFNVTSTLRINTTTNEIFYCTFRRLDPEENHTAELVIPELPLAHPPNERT
Assay: PD-1/PD-L1 Homogenous Time-Resolved Fluorescence (HTRF) binding assay
Settings: PD-L1-His 10 nM, PD-1-Ig 20 nM
measured-parameter: IC50
Please format your answer as a value with the unit trailing.

# compound, observed-value
measured = [
    ("CC(=O)NC1CCN(CCCOc2cccc(-c3cccc(COc4cc(OCc5cncc(C#N)c5)c(CN5CCCCC5c5cnn(C)c5)cc4Cl)c3C)c2C)CC1 (stereo not drawn)", "3 nM"),
    ("Cc1c(COc2cc(OCc3cncc(C#N)c3)c(CN(C)Cc3nc[nH]n3)cc2Cl)cccc1-c1cccc(OCC2CCCN(C)C2)c1Cl (stereo not drawn)", "0.7 nM"),
    ("CC(=O)NC1CCN(CCCOc2cccc(-c3cccc(COc4cc(OCc5cncc(C#N)c5)c(CN5CCCCC5c5nnn[nH]5)cc4Cl)c3C)c2Cl)CC1 (stereo not drawn)", "1.2 nM"),
    ("Cc1c(COc2cc(OCc3cncc(C#N)c3)c(CNCc3nnn[nH]3)cc2Cl)cccc1-c1cccc(OCCCN2CC[C@@H](O)C2)c1C", "2.9 nM"),
    ("Cc1ncsc1CCNCc1cc(Cl)c(OCc2cccc(-c3cccc(OCC4CCCN(C)C4)c3Cl)c2C)cc1OCc1cncc(C#N)c1 (stereo not drawn)", "0.7 nM"),
]

Field: next compound
**Query** Fill blank: measured IC50 of the compound Cc1c(COc2cc(OCc3cncc(C#N)c3)c(CN3CCCCC3c3cn[nH]c3)cc2Cl)cccc1-c1cccc(OCCCNC[C@H](O)CO)c1Cl (stereo partly drawn) is ____.
**Result** 0.8 nM
